For each entry below, report its Ki value.
# Assayed System: Melatonin receptor type 1B (Homo sapiens)
# Sequence (P49286 whole entry): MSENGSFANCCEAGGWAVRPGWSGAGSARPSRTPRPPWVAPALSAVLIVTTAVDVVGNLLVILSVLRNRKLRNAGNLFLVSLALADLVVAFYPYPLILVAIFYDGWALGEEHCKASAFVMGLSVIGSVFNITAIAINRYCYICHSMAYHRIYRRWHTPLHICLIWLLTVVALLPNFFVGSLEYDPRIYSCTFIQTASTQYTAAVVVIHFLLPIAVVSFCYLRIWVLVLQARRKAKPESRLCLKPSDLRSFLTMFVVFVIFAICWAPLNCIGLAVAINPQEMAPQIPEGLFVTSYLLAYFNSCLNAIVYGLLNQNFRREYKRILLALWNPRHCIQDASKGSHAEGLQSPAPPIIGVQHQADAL

Any idea what Ki was measured for COc1ccc2c(c(CCNC(C)=O)cn2C)c1[N+](=O)[O-] ?
194 nM

Check COc1ccc2c(c1)c(CCNC(C)=O)cn2C too.
3.1 nM

Then COc1ccc2c(c(CCNC(C)=O)c(I)n2C)c1[N+](=O)[O-] ?
39 nM

Try this compound too: COc1cc2c(CCNC(C)=O)c[nH]c2cc1[N+](=O)[O-]
5.3 nM

// same read-out, input: COc1ccc2[nH]c(I)c(CCNC(C)=O)c2c1[N+](=O)[O-]
23.7 nM

Would you mind doing COc1ccc2[nH]cc(CCNC(C)=O)c2c1[N+](=O)[O-] as well?
820 nM
